Reference source for all entries: PubChem BioAssay

# test.summary: blockers of cytochrome c efflux from mitochondria – biochemical, purified mitochondria (AID 1603);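 also: mouse liver mitochondria challenged with calcium chloride; signal normalized to the plate average as 100%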
# condition.set: stronger effect = lower value
Threshold check on cytochrome c release ratio: strictly below 1 is t; on or above 1 is f.

compound=CC1(C)S[C@@H]2[C@H](NC(=O)[C@@H](N)c3ccc(O)cc3)C(=O)N2[C@H]1C(=O)O classification=f
compound=O=c1cc(-c2ccccc2)oc2cc(O)c(O)cc12 classification=f
compound="Nc1ncnc2c1ncn2C1OC(CO)[C@H](O)C1O (stereo partly drawn)" classification=f
compound="CC1(C)S[C@@H]2[C@H](NC(=O)[C@H](NC(=O)N3CCNC3=O)c3ccccc3)C(=O)N2C1C(=O)O (stereo partly drawn)" classification=f
compound="CC1(C)O[C@@H]2C[C@H]3C4C[C@H](F)C5=CC(=O)C=CC5(C)[C@@]4(F)[C@@H](O)C[C@]3(C)[C@]2(C(=O)CO)O1 (stereo partly drawn)" classification=t
compound="COC(=O)/C(=C1\\OC(=O)C(c2ccccc2)C1=O)c1ccccc1 (stereo not drawn)" classification=f
compound="NC[C@@H]1O[C@H](OC2[C@@H](O)[C@H](O[C@@H]3[C@H](N)[C@@H](O)C[C@H](N)[C@H]3O[C@H]3O[C@H](CO)[C@@H](O)[C@H](O)[C@H]3N)O[C@@H]2CO)[C@H](N)[C@@H](O)[C@@H]1O (stereo partly drawn)" classification=f
compound="CN=C(N)NCCCC(N)C(=O)O (stereo not drawn)" classification=t

---

# test.summary: yeast 75Q aggregation reduction – 75Q-TubU reporter (AID 1593)
# condition.set: Yeast 75Q polyglutamine aggregation reporter
Reported score values follow for various compounds
endpoint.name: score

compound=CC(=O)N[C@@H](Cc1c[nH]c2ccccc12)C(=O)O assay_value=1.18
compound="CC1(C)S[C@@H]2[C@H](NC(=O)[C@H](NC(=O)N3CCNC3=O)c3ccccc3)C(=O)N2C1C(=O)O (some centres undefined)" assay_value=1.31
compound="COc1ccc(CCC(=O)c2c(O)cc(O[C@@H]3O[C@H](CO)C(O)[C@H](O)C3O[C@@H]3O[C@@H](C)[C@H](O)[C@@H](O)[C@H]3O)cc2O)cc1O (some centres undefined)" assay_value=1.15
compound="CCC[C@@H]1C[C@@H](C(=O)NC(C(C)Cl)C2O[C@H](SC)[C@H](O)[C@@H](O)[C@H]2O)N(C)C1 (some centres undefined)" assay_value=1.1

---

# test.system: Mitogen-activated protein kinase 7 (Homo sapiens) (UniProt Q13164)
# Sequence (Q13164 whole entry, looked up, the tested form may be a part): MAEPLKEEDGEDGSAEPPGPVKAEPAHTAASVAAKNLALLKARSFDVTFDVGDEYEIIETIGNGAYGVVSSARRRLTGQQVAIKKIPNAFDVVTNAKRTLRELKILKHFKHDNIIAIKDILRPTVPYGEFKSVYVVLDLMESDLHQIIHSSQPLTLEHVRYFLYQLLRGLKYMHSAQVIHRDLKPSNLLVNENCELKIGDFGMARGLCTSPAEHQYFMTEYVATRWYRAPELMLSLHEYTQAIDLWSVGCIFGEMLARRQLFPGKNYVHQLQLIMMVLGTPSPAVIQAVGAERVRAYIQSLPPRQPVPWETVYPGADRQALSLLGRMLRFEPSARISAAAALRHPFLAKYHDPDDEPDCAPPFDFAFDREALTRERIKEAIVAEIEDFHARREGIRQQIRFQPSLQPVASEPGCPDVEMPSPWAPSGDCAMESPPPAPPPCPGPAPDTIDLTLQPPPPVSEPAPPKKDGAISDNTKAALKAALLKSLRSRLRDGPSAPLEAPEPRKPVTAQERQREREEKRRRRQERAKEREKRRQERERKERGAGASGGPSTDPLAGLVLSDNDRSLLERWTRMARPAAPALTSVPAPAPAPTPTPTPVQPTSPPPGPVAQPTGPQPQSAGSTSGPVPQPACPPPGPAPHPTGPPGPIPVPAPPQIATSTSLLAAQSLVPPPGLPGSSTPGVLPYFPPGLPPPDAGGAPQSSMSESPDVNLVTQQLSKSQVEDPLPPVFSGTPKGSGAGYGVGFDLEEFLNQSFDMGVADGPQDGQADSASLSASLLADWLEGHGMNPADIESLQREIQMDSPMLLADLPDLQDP
# test.summary: Gal4-ERK5 driven luciferase induction – cell-based, HTS, primary screen (AID 1508626);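 also: luciferase driven by Gal4-ERK5 fusion binding five Gal4 sites before minimal TATA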
# condition.set: HeLa Gal4-ERK5 transactivation, 18 h, at 5 µM
The source made the active and inactive calls.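 The calls were made as follows: active = luciferase signal above three times the same-plate solvent-only control wells; inactive = the rest.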
Outcomes: active, inactive

molecule=CC(=O)O[C@H]1CC[C@]2(C)[C@H]3CC=C4[C@@H]5CC(C)(C)CC[C@]5(C)CC[C@@]4(C)[C@]3(C)CC[C@H]2C1(C)C classification=inactive
molecule=CC(=O)N[C@@H](Cc1c[nH]c2ccccc12)C(N)=O classification=inactive
molecule=C[C@@H]1C\C=C/C=C/C=C/C=C/[C@H](O[C@@H]2O[C@H](C)[C@@H](O)[C@H](N)[C@@H]2O)C[C@@H]2O[C@](O)(C[C@@H](O)C[C@@H]3O[C@@H]3/C=C\C(=O)O1)C[C@H](O)[C@H]2C(=O)O classification=inactive
molecule=CC1=C2[C@H](/C=C(\C)C(=O)O)CC[C@@H](C)[C@H]2CC1 classification=inactive
molecule=COc1ccc(-c2coc3cc(OC(C)=O)cc(OC(C)=O)c3c2=O)cc1 classification=inactive
molecule=CC(C)CCC[C@@H](C)[C@H]1CC[C@H]2[C@@H]3CC(=O)[C@H]4C[C@@H](O)CC[C@]4(C)[C@H]3CC[C@]12C classification=active
molecule=COC(=O)/C=C/C(C)=C\C=C\C(C)=C\C=C\C=C(C)\C=C\C=C(C)\C=C\C(=O)O classification=inactive
molecule=O=S(=O)([O][Al])OC[C@H]1O[C@@](COS(=O)(=O)[O][Al])(O[C@H]2O[C@H](COS(=O)(=O)[O][Al])[C@@H](OS(=O)(=O)[O][Al])[C@H](OS(=O)(=O)[O][Al])[C@H]2OS(=O)(=O)[O][Al])[C@@H](OS(=O)(=O)[O][Al])[C@@H]1OS(=O)(=O)[O][Al] classification=inactive
molecule=C=N[C@@H](C(=O)N[C@@H]1C(=O)N2[C@@H]1SC(C)(C)[C@@H]2C(=O)O)c1ccccc1 classification=inactive
molecule=CC[C@H](/C=C/[C@@H](C)[C@H]1CC[C@H]2[C@@H]3CCC4=CC(=O)CC[C@]4(C)[C@H]3CC[C@]12C)C(C)C classification=inactive
molecule=O=c1cc(-c2cccc(O)c2)oc2ccc(O)cc12 classification=inactive
molecule=C=C1CC[C@H](O)C/C1=C/C=C1\CCC[C@]2(C)[C@@H]([C@H](C)CCCC(C)C)CC[C@@H]12 classification=inactive
molecule=C[C@]12CC[C@@H]3c4ccc(OS(=O)(=O)O)cc4CC[C@H]3[C@@H]1CCC2=O classification=inactive
molecule="CC(=O)OC1C[C@@]2(C)C(CC[C@@H]2C(C)=O)C2CCC3=CC(=O)CC[C@]3(C)C12 (stereo not given in full)" classification=inactive
molecule=Cn1nnnc1SCC1=C(C(=O)O)N2C(=O)[C@@H](NC(=O)[C@H](O)c3ccccc3)[C@H]2SC1 classification=inactive

---

# test.summary: MELAS cybrid and Rieske KO viability enhancers – cell-based, MELAS cybrids, Rieske KO mouse fibroblasts, CellTiter-Glo, primary screen (AID 1508586);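 also: z relative to plate mean and SD of compound and empty wells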
# condition.set: MELAS cybrid survival, low glucose, CellTiter-Glo 48 h
Activity calls are given as the source filed them.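 The calls were made as follows: active = mean z-score across replicates of 1.96 or higher in either the MELAS or the Rieske mutant cell line; inactive = the rest.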
Classes used: y (active), n (inactive)

compound=CCC(=O)[C@@]1(C)[C@H](C)C[C@H]2[C@@H]3CCC4=CC(=O)C=C[C@]4(C)[C@H]3[C@@H](O)C[C@@]21C classification=n
compound="CCCCCC(O)C=CC1C(O)CC(=O)C1CCCCCCC(=O)O (centres undefined)" classification=n
compound=c1ccc(-c2ncc(-c3ccn[nH]3)s2)cc1 classification=y
compound="CN1CCc2nc(C(=O)NC3CC(C(=O)N(C)C)CCC3NC(=O)C(=O)Nc3ccc(Cl)cn3)sc2C1 (centres undefined)" classification=n
compound="Cc1cc(=O)oc2cc(OC3OC(CO)C(O)C(O)C3O)ccc12 (centres undefined)" classification=n
compound="CN1C[C@H](C(=O)N[C@]2(C)O[C@@]3(O)[C@@H]4CCCN4C(=O)[C@H](Cc4ccccc4)N3C2=O)CC2c3cccc4[nH]cc(c34)C[C@H]21 (some centres undefined)" classification=n
compound=CCC(=O)O[C@@]1(C(=O)CCl)[C@@H](C)C[C@H]2[C@@H]3CCC4=CC(=O)C=C[C@]4(C)[C@]3(F)[C@H](O)C[C@@]21C classification=n
compound=O=C1CC(=O)c2c(Cl)c(Cl)c(Cl)c(Cl)c21 classification=n
compound="Oc1ccc(OC2CCCCO2)cc1 (centres undefined)" classification=n

---

Recorded inhibition by entry
# test.summary: drug combination toxicity in non-malignant astrocytes – cell-based, BGB or cisplatin IC20 combos, cytotoxicity control for chromothriptic childhood tumor combination screen (AID 1671460);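 also: cells exposed to compounds for 96 hours before viability readout; 0% = vehicle and 100% = killing control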
# condition.set: Human astrocytes, viability inhibition, drug combinations; measured here: combo with BGB IC20; at 0.5 µM; stronger effect = higher value
endpoint.name: inhibition

compound="NC(=O)c1cccc2[nH]c(-c3ccc(C4CCCN4)cc3F)nc12 (stereo not given)" endpoint_name=inhibition assay_value=32.5%
compound="C=CC1=C(C)C2=CC3=NC(=C(CC(=O)O)C4=NC(=C(C)C4=C(O)O)C=c4[nH]c(c(C)c4CC)=CC1=N2)C(CCC(=O)O)C3C (stereo not given)" endpoint_name=inhibition assay_value=-9.9%
compound="Nc1ccn(C2CCC(CO)O2)c(=O)n1 (stereo not given)" endpoint_name=inhibition assay_value=2.88%
compound=C[C@H](NC(=O)c1ccccc1N=Cc1c(O)ccc2ccccc12)c1ccccc1 endpoint_name=inhibition assay_value=4.85%
compound=Nc1nc(NC2CC2)cc(-c2cccc(Cl)c2Cl)n1 endpoint_name=inhibition assay_value=-4.24%
compound="CC1CNC(=O)NC1=O (stereo not given)" endpoint_name=inhibition assay_value=9.11%
compound="CON=C1CN(c2nc3c(cc2F)c(=O)c(C(=O)O)cn3C2CC2)CC1CN (stereo not given)" endpoint_name=inhibition assay_value=7.71%
compound="Cc1cn(C2CC(O)C(COP(=O)(O)OP(=O)(O)OP(=O)(O)O)O2)c(=O)[nH]c1=O (stereo not given)" endpoint_name=inhibition assay_value=-0.198%
compound="NC(=O)c1ncn(C2OC(CO)C(O)C2O)c1O (stereo not given)" endpoint_name=inhibition assay_value=-5.58%
compound=Cc1ccc([N+](=O)[O-])cc1S(=O)(=O)N(C)/N=C\c1cnc2ccc(Br)cn12 endpoint_name=inhibition assay_value=72.4%
